Data credit: patent US20040101834A1

- Test system: GW70/LF cells
- Protocol Notes: Antifolate growth inhibition, 72 h drug exposure
- Type: cell-based
- Particulars: Homo sapiens, 72 h, Table 10, GW70/LF
I'd appreciate it if you could supply IC50 values for the items below.
One number for each entry, in nM.

Worked set:
[[record]]
molecule = "COc1cc(NCc2ccc3nc(N)nc(N)c3c2C)cc(OC)c1OC"
reported_metric = "IC50"
observed_result = 1.1

[[record]]
molecule = "C#CCN(Cc1cc2c(=O)[nH]c(C)nc2cc1C)c1ccc(C(=O)N[C@@H](CCc2nnn[nH]2)C(=O)O)c(F)c1"
reported_metric = "IC50"
observed_result = 25

[[record]]
molecule = "Cc1nc2ccc3ccc(CNc4ccc5c(c4)CN([C@@H](CCC(=O)O)C(=O)O)C5=O)cc3c2c(=O)[nH]1"
reported_metric = "IC50"
observed_result = 2.5

[[record]]
molecule = "CN(Cc1cnc2nc(N)nc(N)c2n1)c1ccc(C(=O)N[C@@H](CCC(=O)O)C(=O)O)cc1 [MTX, methotrexate]"
reported_metric = "IC50"
observed_result = 8

[[record]]
molecule = "Nc1nc2[nH]cc(CCc3ccc(C(=O)N[C@@H](CCC(=O)O)C(=O)O)cc3)c2c(=O)[nH]1"
reported_metric = "IC50"
observed_result = 4.6


Q: Enter reported IC50 observed with GW70/LF cells for Nc1nc2c(c(=O)[nH]1)CC(CCc1ccc(C(=O)N[C@@H](CCC(=O)O)C(=O)O)cc1)CN2 (stereo partly drawn) [DDATHF, 5,10-dideazatetrahydrofolic acid]
Result: 8.2
